Listed next: entries and their corresponding viability, T/C.
System: 349418-098-R-PDC spheroids, viability, % test/control
assay-comment: Anticancer human tumor 349418-098-R-PDC patient-derived lung adenocarcinoma cell line growth inhibition [IpAb]
test-settings: second compound 0.1 µM; first compound 1 µM; hits give low values; spheroids with HUVEC and MSC
Answer with a number only, understood to be in %.

Here's what some known entries look like.
# molecule, unit-symbol, viability, T/C
rows = [
    ("CCCS(=O)(=O)Nc1ccc(F)c(C(=O)c2c[nH]c3ncc(-c4ccc(Cl)cc4)cc23)c1F + CC(C)NCC(C(=O)N1CCN(c2ncnc3c2C(C)CC3O)CC1)c1ccc(Cl)cc1", "%", 38.4),
    ("CC1(C)CCC(CN2CCN(c3ccc(C(=O)NS(=O)(=O)c4ccc(NCC5CCOCC5)c([N+](=O)[O-])c4)c(Oc4cnc5[nH]ccc5c4)c3)CC2)=C(c2ccc(Cl)cc2)C1 + CC(C)NCC(C(=O)N1CCN(c2ncnc3c2C(C)CC3O)CC1)c1ccc(Cl)cc1", "%", 78),
    ("Cn1nccc1Nc1nccc(-c2ccn(C(CO)c3ccc(Cl)c(F)c3)c(=O)c2)n1 (stereo not given) + CC(C)NCC(C(=O)N1CCN(c2ncnc3c2C(C)CC3O)CC1)c1ccc(Cl)cc1", "%", 29.7),
]

query: For C=CCn1c(=O)c2cnc(Nc3ccc(N4CCN(C)CC4)cc3)nc2n1-c1cccc(C(C)(C)O)n1 + CCN1CCN(Cc2ccc(Nc3ncc(F)c(-c4cc(F)c5nc(C)n(C(C)C)c5c4)n3)nc2)CC1 , write its viability, T/C.
result: 7

query: For C=CC(=O)N1CCN(c2nc(=O)n(-c3c(C)ccnc3C(C)C)c3nc(-c4c(O)cccc4F)c(F)cc23)C(C)C1 (stereo not given) + CC(C)NCC(C(=O)N1CCN(c2ncnc3c2C(C)CC3O)CC1)c1ccc(Cl)cc1 , write its viability, T/C.
result: 70.2

====

Tested on: 349418-098-R-PDC spheroids, viability, % test/control
assay-comment: Anticancer human tumor 349418-098-R-PDC cell line growth inhibition [IpAb];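 also: spheroids exposed to compounds for 7 days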
test-settings: second compound 0.316 µM; first compound 0.316 µM; hits give low values; spheroids with HUVEC and MSC
measured-endpoint: viability, T/C (%)
Answer with a number only, understood to be in %.

Here's what some known entries look like.
# compound, unit-symbol, viability, T/C
data = [
    ("Cc1nc(NC(=O)N2CCCC2C(N)=O)sc1-c1ccnc(C(C)(C)C(F)(F)F)c1 (stereo unspecified) + CC(C)NCC(C(=O)N1CCN(c2ncnc3c2C(C)CC3O)CC1)c1ccc(Cl)cc1", "%", 24.9),
    ("Cn1ncc(Cl)c1-c1cc(C(=O)NC(CN)Cc2cccc(F)c2)sc1Cl (stereo unspecified) + CCN1CCN(Cc2ccc(Nc3ncc(F)c(-c4cc(F)c5nc(C)n(C(C)C)c5c4)n3)nc2)CC1", "%", 8.98),
    ("C=CCn1c(=O)c2cnc(Nc3ccc(N4CCN(C)CC4)cc3)nc2n1-c1cccc(C(C)(C)O)n1 + CCN1CCN(Cc2ccc(Nc3ncc(F)c(-c4cc(F)c5nc(C)n(C(C)C)c5c4)n3)nc2)CC1", "%", 14.4),
    ("Cc1nc(NC(=O)N2CCCC2C(N)=O)sc1-c1ccnc(C(C)(C)C(F)(F)F)c1 (stereo unspecified) + CCN1CCN(Cc2ccc(Nc3ncc(F)c(-c4cc(F)c5nc(C)n(C(C)C)c5c4)n3)nc2)CC1", "%", 9.79),
    ("Cn1ncc(Cl)c1-c1cc(C(=O)NC(CN)Cc2cccc(F)c2)sc1Cl (stereo unspecified) + CC(C)NCC(C(=O)N1CCN(c2ncnc3c2C(C)CC3O)CC1)c1ccc(Cl)cc1", "%", 25.3),
    ("CCCS(=O)(=O)Nc1ccc(F)c(C(=O)c2c[nH]c3ncc(-c4ccc(Cl)cc4)cc23)c1F + CCN1CCN(Cc2ccc(Nc3ncc(F)c(-c4cc(F)c5nc(C)n(C(C)C)c5c4)n3)nc2)CC1", "%", 12.5),
]

query: For Cn1nccc1Nc1nccc(-c2ccn(C(CO)c3ccc(Cl)c(F)c3)c(=O)c2)n1 (stereo unspecified) + CCN1CCN(Cc2ccc(Nc3ncc(F)c(-c4cc(F)c5nc(C)n(C(C)C)c5c4)n3)nc2)CC1 , write its viability, T/C.
result: 11.2

query: For CC1(C)CCC(CN2CCN(c3ccc(C(=O)NS(=O)(=O)c4ccc(NCC5CCOCC5)c([N+](=O)[O-])c4)c(Oc4cnc5[nH]ccc5c4)c3)CC2)=C(c2ccc(Cl)cc2)C1 + CC(C)NCC(C(=O)N1CCN(c2ncnc3c2C(C)CC3O)CC1)c1ccc(Cl)cc1 , write its viability, T/C.
result: 50.6

query: For COc1c(OCCCN2CCOCC2)ccc2c3n(c(=NC(=O)c4cnc(N)nc4)nc12)CCN3 + CCN1CCN(Cc2ccc(Nc3ncc(F)c(-c4cc(F)c5nc(C)n(C(C)C)c5c4)n3)nc2)CC1 , write its viability, T/C.
result: 6.11

query: For COc1c(OCCCN2CCOCC2)ccc2c3n(c(=NC(=O)c4cnc(N)nc4)nc12)CCN3 + CC(C)NCC(C(=O)N1CCN(c2ncnc3c2C(C)CC3O)CC1)c1ccc(Cl)cc1 , write its viability, T/C.
result: 5.28

query: For CCCS(=O)(=O)Nc1ccc(F)c(C(=O)c2c[nH]c3ncc(-c4ccc(Cl)cc4)cc23)c1F + CC(C)NCC(C(=O)N1CCN(c2ncnc3c2C(C)CC3O)CC1)c1ccc(Cl)cc1 , write its viability, T/C.
result: 29.8

====

Test system: 349418-098-R-PDC spheroids, viability, % test/control
assay-comment: Anticancer human tumor 349418-098-R-PDC cell line growth inhibition [IpAb];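 also: spheroids exposed to compounds for 7 days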
test-settings: second compound 1 µM; first compound 1 µM; hits give low values; spheroids with HUVEC and MSC
Listed next: entries and their corresponding viability, T/C.
Answer with a number only, understood to be in %.

Here's what some known entries look like.
# molecule, target, result
records = [
    ("Cc1nc(NC(=O)N2CCCC2C(N)=O)sc1-c1ccnc(C(C)(C)C(F)(F)F)c1 (stereo unspecified) + CCN1CCN(Cc2ccc(Nc3ncc(F)c(-c4cc(F)c5nc(C)n(C(C)C)c5c4)n3)nc2)CC1", "349418-098-R-PDC spheroids, viability, % test/control", 7.42),
    ("Cn1ncc(Cl)c1-c1cc(C(=O)NC(CN)Cc2cccc(F)c2)sc1Cl (stereo unspecified) + CCN1CCN(Cc2ccc(Nc3ncc(F)c(-c4cc(F)c5nc(C)n(C(C)C)c5c4)n3)nc2)CC1", "349418-098-R-PDC spheroids, viability, % test/control", 8.54),
    ("C=CCn1c(=O)c2cnc(Nc3ccc(N4CCN(C)CC4)cc3)nc2n1-c1cccc(C(C)(C)O)n1 + CC(C)NCC(C(=O)N1CCN(c2ncnc3c2C(C)CC3O)CC1)c1ccc(Cl)cc1", "349418-098-R-PDC spheroids, viability, % test/control", 3.39),
    ("C=CC(=O)N1CCN(c2nc(=O)n(-c3c(C)ccnc3C(C)C)c3nc(-c4c(O)cccc4F)c(F)cc23)C(C)C1 (stereo unspecified) + CC(C)NCC(C(=O)N1CCN(c2ncnc3c2C(C)CC3O)CC1)c1ccc(Cl)cc1", "349418-098-R-PDC spheroids, viability, % test/control", 17.2),
    ("CC1(C)CCC(CN2CCN(c3ccc(C(=O)NS(=O)(=O)c4ccc(NCC5CCOCC5)c([N+](=O)[O-])c4)c(Oc4cnc5[nH]ccc5c4)c3)CC2)=C(c2ccc(Cl)cc2)C1 + CC(C)NCC(C(=O)N1CCN(c2ncnc3c2C(C)CC3O)CC1)c1ccc(Cl)cc1", "349418-098-R-PDC spheroids, viability, % test/control", 20.4),
]

query: For Cn1nccc1Nc1nccc(-c2ccn(C(CO)c3ccc(Cl)c(F)c3)c(=O)c2)n1 (stereo unspecified) + CCN1CCN(Cc2ccc(Nc3ncc(F)c(-c4cc(F)c5nc(C)n(C(C)C)c5c4)n3)nc2)CC1 , write its viability, T/C.
result: 11.7

query: For CCCS(=O)(=O)Nc1ccc(F)c(C(=O)c2c[nH]c3ncc(-c4ccc(Cl)cc4)cc23)c1F + CCN1CCN(Cc2ccc(Nc3ncc(F)c(-c4cc(F)c5nc(C)n(C(C)C)c5c4)n3)nc2)CC1 , write its viability, T/C.
result: 9.39

query: For Cc1nc(NC(=O)N2CCCC2C(N)=O)sc1-c1ccnc(C(C)(C)C(F)(F)F)c1 (stereo unspecified) + CC(C)NCC(C(=O)N1CCN(c2ncnc3c2C(C)CC3O)CC1)c1ccc(Cl)cc1 , write its viability, T/C.
result: 11

query: For C=CC(=O)N1CCN(c2nc(=O)n(-c3c(C)ccnc3C(C)C)c3nc(-c4c(O)cccc4F)c(F)cc23)C(C)C1 (stereo unspecified) + CCN1CCN(Cc2ccc(Nc3ncc(F)c(-c4cc(F)c5nc(C)n(C(C)C)c5c4)n3)nc2)CC1 , write its viability, T/C.
result: 16

query: For COc1c(OCCCN2CCOCC2)ccc2c3n(c(=NC(=O)c4cnc(N)nc4)nc12)CCN3 + CCN1CCN(Cc2ccc(Nc3ncc(F)c(-c4cc(F)c5nc(C)n(C(C)C)c5c4)n3)nc2)CC1 , write its viability, T/C.
result: 7.33

query: For COc1c(OCCCN2CCOCC2)ccc2c3n(c(=NC(=O)c4cnc(N)nc4)nc12)CCN3 + CC(C)NCC(C(=O)N1CCN(c2ncnc3c2C(C)CC3O)CC1)c1ccc(Cl)cc1 , write its viability, T/C.
result: 4.6

query: For Cn1ncc(Cl)c1-c1cc(C(=O)NC(CN)Cc2cccc(F)c2)sc1Cl (stereo unspecified) + CC(C)NCC(C(=O)N1CCN(c2ncnc3c2C(C)CC3O)CC1)c1ccc(Cl)cc1 , write its viability, T/C.
result: 10.1

query: For CCCS(=O)(=O)Nc1ccc(F)c(C(=O)c2c[nH]c3ncc(-c4ccc(Cl)cc4)cc23)c1F + CC(C)NCC(C(=O)N1CCN(c2ncnc3c2C(C)CC3O)CC1)c1ccc(Cl)cc1 , write its viability, T/C.
result: 10.1
